Where these numbers come from: paper PMC9352680

Molecular target: T1, PUF4 RNA-binding domain (Saccharomyces cerevisiae, UniProt P25339 537-888)
T1 sequence: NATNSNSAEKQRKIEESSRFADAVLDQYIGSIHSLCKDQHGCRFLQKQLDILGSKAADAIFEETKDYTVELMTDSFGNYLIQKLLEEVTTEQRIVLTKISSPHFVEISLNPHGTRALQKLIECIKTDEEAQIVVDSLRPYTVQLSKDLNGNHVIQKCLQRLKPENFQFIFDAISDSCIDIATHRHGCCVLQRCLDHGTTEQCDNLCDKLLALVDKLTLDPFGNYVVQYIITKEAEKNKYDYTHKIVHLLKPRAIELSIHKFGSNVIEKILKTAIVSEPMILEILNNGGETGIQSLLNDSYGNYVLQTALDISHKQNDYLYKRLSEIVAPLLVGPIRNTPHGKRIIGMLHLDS
Experiment: Mg; RNA-MaP; 20 mM Na-HEPES pH 7.4, 30 mM KOAc, 0.75 mM MgCl2, 0.1% Tween-20, 5% glycerol, 0.1 mg/mL BSA, 2 mM DTT; 25 C; 0.0125-409.6 nM protein
Conditions: tags: N-His6-TEV cleaved; C-SNAP kept, Cy3B-labelled; label: tethered on chip by stalled RNA polymerase
# label = 1 (yes) if Kd < 200 nM else 0 (no)

{"Binder": "UCUCUUUGUACAUAUUUCUCUU (ssRNA) [Ic_S1_P5E.1_K5.1_C5.1_H5.1_A5.1_[T5C]_[T6A]_[A7T]_F5.1_[T8A]_[A10T]_T5.1]", "Group Label": "1 (yes)"}
{"Binder": "Ic_S4_P4E.1_K4.1_C4.1_H4.1_A4.1_[T5C]_[A6T]_[T7A]_F4.1_[T8C]_[A9G]_T4.1 (ssRNA) RNA: UUUGACAACUGAUCGUUCUUUCUUGUACUACGUUCUUUCUCGAUCAGUUGUCUUU", "Group Label": "0 (no)"}
{"Binder": "Id_ii_S2_P4E.3_K4.2_C4.2_[C-2G]_[T-1C]_H4.2_A4.1_F4.1_T4.2_[G10A]_[T11C] (ssRNA) RNA: UUUGAUUAAUAUGAUAUCGUUCUUUCUGCUAUAUAUUAACUUCUUUCUCGAUAUCAUAUUAAUCUUU", "Group Label": "1 (yes)"}
{"Binder": "Id_ii_S2_P5E.3_K5.2_C5.2_[T-1A]_H5.2_A5.1_F5.1_T5.2_[T11C]_[A12G] (ssRNA) RNA: UUUGAUUAAUAUGAUAUCGUUCUUUCUCAUAUAUUAUUACGUUCUUUCUCGAUAUCAUAUUAAUCUUU", "Group Label": "0 (no)"}
{"Binder": "Id_iii_S2_P5E.7_K5.3_C5.3_[T-1G]_H5.3_A5.1_F5.1_T5.2 (ssRNA) RNA: UUUGAUUAAUAUGAUAUCGUUCUUUCUUCGACACUUAUUAUAUUCUUUCUCGAUAUCAUAUUAAUCUUU", "Group Label": "0 (no)"}
{"Binder": "UCUCUUCGACACUAUAAUUCUCUU (ssRNA) [Id_ii_S1_P3E.4_K3.3_C3.2_[T-1G]_H3.3_A3.1_F3.1_T3.2_[T9A]_[A10T]]", "Group Label": "0 (no)"}
{"Binder": "Id_ii_S4_P3E.2_K3.1_C3.2_[C-2T]_H3.1_A3.1_F3.1_T3.2_[T9A]_[A10C] (ssRNA) RNA: UUUGACAACUGAUCGUUCUUUCUUUUGUAUAUAACUUCUUUCUCGAUCAGUUGUCUUU", "Group Label": "1 (yes)"}
{"Binder": "Id_ii_S2_P4E.4_K4.3_C4.2_[C-2T]_[T-1A]_H4.3_A4.1_F4.1_T4.2_[G10C]_[T11A] (ssRNA) RNA: UUUGAUUAAUAUGAUAUCGUUCUUUCUUAACACUAUUACAUUCUUUCUCGAUAUCAUAUUAAUCUUU", "Group Label": "0 (no)"}
{"Binder": "UCUCUUUGUAAUGGUAUCUCUU (ssRNA) [Ic_S1_P5E.1_K5.1_C5.1_H5.1_A5.1_[T5A]_[A7G]_F5.1_[T8G]_T5.1]", "Group Label": "1 (yes)"}
{"Binder": "Id_ii_S2_P3E.3_K3.2_C3.2_[C-2A]_H3.2_A3.1_F3.1_T3.2_[T9A] (ssRNA) RNA: UUUGAUUAAUAUGAUAUCGUUCUUUCUAUUAUAUAUAAAUUCUUUCUCGAUAUCAUAUUAAUCUUU", "Group Label": "0 (no)"}
{"Binder": "UCUCUUUAUAUGUAUCUCUU (ssRNA) [Ib_S1_P3E.1_K3.1_C3.1_H3.1_[G2A]_A3.1_[A6G]_F3.1_T3.1]", "Group Label": "0 (no)"}
{"Binder": "Ic_S4_P5E.1_K5.1_C5.1_H5.1_A5.1_[T5C]_[A7G]_F5.1_[T8G]_T5.1 (ssRNA) RNA: UUUGACAACUGAUCGUUCUUUCUUGUACUGGUAUUCUUUCUCGAUCAGUUGUCUUU", "Group Label": "1 (yes)"}
{"Binder": "UCUCUUUGUAACCUGUCUCUU (ssRNA) [Ic_S1_P4E.1_K4.1_C4.1_H4.1_A4.1_[T5A]_[A6C]_[T7C]_F4.1_[A9G]_T4.1]", "Group Label": "1 (yes)"}
{"Binder": "Ic_S2_P5E.1_K5.1_C5.1_H5.1_A5.1_[T5G]_[A7T]_F5.1_[T8C]_[T9C]_[A10T]_T5.1 (ssRNA) RNA: UUUGAUUAAUAUGAUAUCGUUCUUUCUUGUAGUUCCUUUCUUUCUCGAUAUCAUAUUAAUCUUU", "Group Label": "1 (yes)"}
{"Binder": "UCUCUUUGUUUAUUAUUAUCUCUU (ssRNA) [Ie_S1_P5E.1_K5.1_C5.1_H5.1_[+2TT]_A5.1_F5.1_T5.1]", "Group Label": "1 (yes)"}
{"Binder": "Ic_S4_P5E.1_K5.1_C5.1_H5.1_A5.1_[T5A]_[T6A]_[A7T]_F5.1_[T9A]_T5.1 (ssRNA) RNA: UUUGACAACUGAUCGUUCUUUCUUGUAAAUUAAUUCUUUCUCGAUCAGUUGUCUUU", "Group Label": "1 (yes)"}
{"Binder": "Ie_S4_P4E.1_K4.1_C4.1_H4.1_A4.1_F4.1_[+9CTCT]_T4.1 (ssRNA) RNA: UUUGACAACUGAUCGUUCUUUCUUGUAUAUUACUCUUUCUUUCUCGAUCAGUUGUCUUU", "Group Label": "1 (yes)"}
{"Binder": "Ic_S4_P4E.1_K4.1_C4.1_H4.1_A4.1_[A6G]_[T7C]_F4.1_[T8A]_[A9T]_T4.1 (ssRNA) RNA: UUUGACAACUGAUCGUUCUUUCUUGUAUGCAUUUCUUUCUCGAUCAGUUGUCUUU", "Group Label": "1 (yes)"}
{"Binder": "UCUCUUCUUGUAUAUAACUCUCUU (ssRNA) [Id_ii_S1_P3E.2_K3.1_C3.2_H3.1_A3.1_F3.1_T3.2_[T9A]_[A10C]]", "Group Label": "1 (yes)"}
{"Binder": "UCUCUUUGUAUGUUUCUCUCUU (ssRNA) [Ic_S1_P5E.1_K5.1_C5.1_H5.1_A5.1_[T6G]_[A7T]_F5.1_[A10C]_T5.1]", "Group Label": "1 (yes)"}
{"Binder": "Ic_S4_P5E.1_K5.1_C5.1_H5.1_A5.1_[T5G]_[T6C]_[A7G]_F5.1_[T8C]_[T9G]_[A10T]_T5.1 (ssRNA) RNA: UUUGACAACUGAUCGUUCUUUCUUGUAGCGCGUUUCUUUCUCGAUCAGUUGUCUUU", "Group Label": "0 (no)"}
{"Binder": "Ic_S2_P5E.1_K5.1_C5.1_H5.1_A5.1_[T5C]_[A7T]_F5.1_[T8C]_[T9A]_[A10T]_T5.1 (ssRNA) RNA: UUUGAUUAAUAUGAUAUCGUUCUUUCUUGUACUUCAUUUCUUUCUCGAUAUCAUAUUAAUCUUU", "Group Label": "1 (yes)"}
{"Binder": "UCUCUUUGUAGUUGUCUCUU (ssRNA) [Ic_S1_P3E.1_K3.1_C3.1_H3.1_A3.1_[T5G]_[A6T]_F3.1_[A8G]_T3.1]", "Group Label": "0 (no)"}
